The reported measurements were obtained from PubChem BioAssay AID1918942.

Tested on: 743489-274-T-PDC complex spheroid viability;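 also: spheroids exposed to compounds for 7 days before readout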
Test: Anticancer human tumor 743489-274-T-PDC patient-derived renal cell carcinoma cell line growth inhibition
Details: curve of compound
Entries and their IC50 values follow.

MOLECULE	IC50
Nc1ncn(C2CC(O)C(CO)O2)c(=O)n1 (stereo not given)	> 1000 nM
NS(=O)(=O)OCC1CC(n2ccc3c(NC4CCc5ccccc54)ncnc32)CC1O (stereo not given)	> 3000 nM
CC1COCCN1c1cc(-c2ccnn2C)c2ccnc(-c3ccn[nH]3)c2n1 (stereo not given)	> 1000 nM
O=C(c1cc(Cc2n[nH]c(=O)c3ccccc23)ccc1F)N1CCN(C(=O)C2CC2)CC1	> 10000 nM
CC[C@@]1(O)C(=O)OCc2c1cc1n(c2=O)Cc2cc3c(CN(C)C)c(O)ccc3nc2-1	> 100 nM
COc1cc(C2c3cc4c(cc3C(OC3OC5COC(C)OC5C(O)C3O)C3COC(=O)C23)OCO4)cc(OC)c1O (stereo not given)	> 3000 nM
Nc1ccn(C2OC(CO)C(O)C2(F)F)c(=O)n1 (stereo not given)	> 300 nM
O=C(C=Cn1cnc(-c2cc(C(F)(F)F)cc(C(F)(F)F)c2)n1)NNc1cnccn1	> 1000 nM
CC1(C)CCC(CN2CCN(c3ccc(C(=O)NS(=O)(=O)c4ccc(NCC5CCOCC5)c([N+](=O)[O-])c4)c(Oc4cnc5[nH]ccc5c4)c3)CC2)=C(c2ccc(Cl)cc2)C1	> 10000 nM
Cn1ncnc1C1c2n[nH]c(=O)c3cc(F)cc(c23)NC1c1ccc(F)cc1 (stereo not given)	> 100 nM
CCN(c1cc(-c2ccc(CN3CCOCC3)cc2)cc(C(=O)NCc2c(C)cc(C)[nH]c2=O)c1C)C1CCOCC1	> 3000 nM
CC1COCCN1c1cc(C2(S(C)(=N)=O)CC2)nc(-c2ccnc3[nH]ccc23)n1 (stereo not given)	> 10000 nM
CC(C)c1c(-c2ccccc2)nc2c(C#N)c[nH]n2c1=O	> 10000 nM
COc1cc(Nc2ncc3c(n2)-c2ccc(Cl)cc2C(c2c(F)cccc2OC)=NC3)ccc1C(=O)O	> 1000 nM
Nc1ncn(C2CC(O)C(CO)S2)c(=O)n1 (stereo not given)	> 300 nM
